These measurements were taken from ChEMBL document CHEMBL1152677.

# Tested on: L1210
# experimentNotes: Antiproliferative activity against mouse L1210 cells after 5 days by MTT assay
# Type: functional, cell-based
# experimentalConditions: L1210, 120 h
readoutLabel: IC50 (nM)

Below: 3 molecules and their reported IC50.
- COc1ccc(C(=Cc2ccc(OC)c(O)c2)C(=O)c2cc(OC)c(OC)c(OC)c2)cc1: 160
- COc1ccc(/C=C\c2cc(OC)c(OC)c(OC)c2)cc1O: 2.3
- COc1ccc(/C=C(/C(=O)c2cc(OC)c(OC)c(OC)c2)c2ccccc2O)cc1F: 60

[a] COc1ccc(/C=C(\C)C(=O)c2cc(OC)c(OC)c(OC)c2)cc1O
[b] COc1ccc(/C=C(/C(=O)c2cc(OC)c(OC)c(OC)c2)c2ccccc2O)cc1O
Of the two listed items, a and b , which carries the larger IC50 figure? Your answer should be the label attached to the chosen record.
b
(b: 36 nM, a: 11 nM)
